Target: UP1 wt (human, UniProt P09651 1-196)
Sequence (P09651 1-196): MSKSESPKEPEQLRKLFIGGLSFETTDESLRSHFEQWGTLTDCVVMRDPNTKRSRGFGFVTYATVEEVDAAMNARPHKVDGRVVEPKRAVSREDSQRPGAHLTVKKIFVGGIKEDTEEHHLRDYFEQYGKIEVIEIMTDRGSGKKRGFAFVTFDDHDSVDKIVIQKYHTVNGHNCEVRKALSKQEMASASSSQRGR
Test: ITC; ITC: 20 mM Tris-HCl pH 7.5, 150 mM NaCl, 20 C; protein 160 uM in syringe, RNA 10 uM in cell
Conditions: protein: recombinant; tags: C-terminal His6; chain copies: 2; single strand
Reported property: Kd (nM)
Note: unit nM is implicit; provide only the numeric part.

### Prompt Complete the entry with Kd for TTAGGGTTAGGG (ssDNA) [Telo DNA (TTAGGG)2]
### Response 80
